Tested on: SF-268
Test: Cytotoxicity against human SF268 cells after 48 hrs by sulforhodamine B assay
Format: functional, cell-based
Conditions: Homo sapiens, SF-268, 48 h
pIC50: −log10 of the molar value.
Each item that follows carries a reported pIC50.

# annotated cases, reported pIC50 shown
In [3]: df
Out[3]:
                                   compound       reading
0  CC[C@H](C)C(=O)[C@@H](C)c1c(O)c2c(c3c1SCC(=O)N3)[C@@H](O)[C@@H]1[C@@]3(C)CC[C@H](C(C)(C)O)O[C@@H]3CC[C@@]1(C)O2  4.37 to 5.19
1  C/C=C(\C)C(=O)[C@@H](C)c1cc(O)c2c(c1O)O[C@]1(C)CC[C@H]3O[C@@H](C(C)(C)O)CC[C@]3(C)[C@H]1C2=O  4.37 to 5.19
2  CC[C@H](C)C(=O)[C@@H](C)C1=CC(=O)C2=C(O[C@]3(C)CC[C@H]4O[C@@H](C(C)(C)O)CC[C@]4(C)C3=C2)C1=O  4.37 to 5.19
3  CC[C@H](C)c1[nH]c2c(c1C)C(=O)C1=C(C2=O)[C@@H](O)[C@@H]2[C@@]3(C)CC[C@H](C(C)(C)O)O[C@@H]3CC[C@@]2(C)O1  4.37 to 5.19

Let us examine a further case.
Test system SF-268; read-out pIC50; what value for CCC/C=C/[C@H]1C=CC(=O)[C@H](O)[C@H]1C(=O)C(C)O (stereo not given in full) ? 4.39

----------
Test system: L02
Assay: Cytotoxicity against human L02 cells by MTS assay
Assay type: cell-based
readout_name: IC50

# annotated cases, reported IC50 shown
In [3]: df
Out[3]:
                            compound_smiles     reading
0  CO[C@@H]1CCC(=O)c2c([C@@H]3CCC(=O)c4c(O)cccc43)ccc(O)c21  1 to 20 µM
1  COC(=O)[C@]1(Cc2ccc(OC)c(CC=C(C)C)c2O)OC(=O)C(O)=C1c1ccc(O)cc1      3.9 µM
2  O=C1CC[C@@H](c2ccc(O)c3c2[C@@H](O)CCC3=O)c2cccc(O)c21  1 to 20 µM
3  COc1cc(C)c2c(c1)oc(=O)c1c(O)cc(O[C@@H]3O[C@H](CO)[C@H](O)[C@H](O)[C@H]3O)cc12    7.2 mg/L
4  O=C1CC[C@@H](c2ccc(O)c3c2C(=O)CCC3=O)c2cccc(O)c21  1 to 20 µM

// query IC50 value for entry COC(=O)[C@]1(Cc2ccc(O)c(CC(C)=O)c2)OC(=O)C(O)=C1c1ccc(OC)cc1 < 10 µM

// query IC50 value for entry COC(=O)[C@]1(Cc2ccc(OC)c(CC=C(C)C)c2)OC(=O)C(O)=C1c1ccccc1 < 10 µM

----------
Tested on: L02
Assay: Cytotoxicity against human L02 cells by MTS assay
Type: cell-based
Each item that follows carries a reported IC50.

# annotated cases, reported IC50 shown
compound_smiles	measurement_target	reading
COC(=O)[C@]1(Cc2ccc(O)c(CC=C(C)C)c2)OC(=O)C(O)=C1c1ccc(OC)cc1	L02	< 10 µM
CC(C)CCC[C@@H](C)[C@H]1CC[C@H]2[C@@H]3CC[C@H]4C[C@@H](O[C@@H]5O[C@H](CO)[C@@H](O)[C@H](O)[C@H]5O)CC[C@]4(C)[C@H]3CC[C@]12C	L02	4.7 µM

Let us examine a further case.
// query IC50 value for entry COC(=O)c1cccc2oc3cc(C)cc(O[C@@H]4O[C@H](CO)[C@@H](O)[C@H](O)[C@H]4O)c3c(=O)c12 6.8 µg/mL

----------
Tested on: SK-OV-3
Assay: Cytotoxicity against human SKOV3 cells after 48 hrs by neutral red dye based assay
Type: functional, cell-based
Settings: SK-OV-3, 48 h
Each item that follows carries a reported IC50.
Reply with just the number (in nM).

# annotated cases, reported IC50 shown
compound_smiles	result_units	IC50
C[C@@H](N)C(=O)Nc1ccccc1C(=O)N[C@@H](O)CCS	nM	800
C=C(CC[C@@H](C)[C@H]1CC=C2C3=C([C@@H](O)[C@H](OC(C)=O)[C@@]21C)[C@@]1(C)C[C@@H](OC(C)=O)[C@H](OC(C)=O)C(C)(C)[C@@H]1CC3)C(C)C	nM	1320

Let us examine a further case.
// query IC50 value for entry C=C(CC[C@@H](C)[C@H]1CC=C2C3=C([C@@H](O)[C@H](OC(C)=O)[C@@]21C)[C@@]1(C)C[C@@H](O)[C@H](OC(=O)c2ccc(O)cc2)C(C)(C)[C@@H]1CC3)C(C)C 3010

----------
Tested on: LoVo
Assay: Cytotoxicity against human LoVo cells after 24 hrs by MTT assay
Assay type: functional, cell-based
readout_name: IC50

                     compound_smiles  readout_name   reading
0  CCCC[C@H](O)C(=O)C/C(=C\C(=O)O)OC          IC50  < 200 µM

Let us examine a further case.
// query IC50 value for entry CC[C@@H](O)[C@H](O)[C@@H]1C[C@](O)(OC)CC(=O)O1 < 200 µM

----------
Test: Inhibition of RANKL-induced NFkappaB (unknown origin) activation expressed in mouse RAW264.7 cells preincubated for 1 hr followed by RANKL stimulation and measured after 6 hrs by luciferase reporter gene based assay
Type: cell-based
pIC50: −log10 of the molar value.
Each item that follows carries a reported pIC50.

# annotated cases, reported pIC50 shown
>>> print(df.to_string())
                            compound_smiles  readout_name       reading
0  COC(=O)c1cc(OC)cc2c1C(=O)[C@H]([C@@H](O)CC(C)=O)CO2         pIC50  4.34 to 4.52
1  COC(=O)c1cc(OC)c(O)c2oc3c(c(=O)c12)[C@H](OC)O[C@@H](C)C3         pIC50  4.34 to 4.52
2  COC(=O)c1cc(OC)cc2c1C(=O)[C@@H]([C@@H](O)CC(C)=O)CO2         pIC50  4.34 to 4.52

// query pIC50 value for entry COC(=O)c1cc(O)cc2oc3c(c(=O)c12)[C@@H](OC)O[C@H](C)C3 4.34 to 4.52

----------
Test system: SW480
Experiment: Cytotoxicity against human SW480 cells by MTT assay
Assay type: functional, cell-based
readout_name: IC50 (µM)
Reply with just the number (in µM).

Test system SW480; read-out IC50; what value for CC1=C(C=O)[C@@]2(C)CCCC(C)(C)[C@@H]2C[C@@H]1O ? 8.72

----------
Each item that follows carries a reported pIC50.
System: MCF7
Test: Cytotoxicity against human MCF7 cells after 48 hrs by sulforhodamine B assay
Assay type: functional, cell-based
Conditions: Homo sapiens, MCF7, 48 h
// pIC50: -log10(molar conc.)

# annotated cases, reported pIC50 shown
>>> print(df.to_string())
                                   compound  readout_name  reading
0  C/C=C/[C@@H]1OC(=O)C2=C[C@H](O)[C@@H](/C=C/C)O[C@H]21         pIC50     4.65
1  CCC/C=C/[C@H]1C=CC(=O)[C@H](O)[C@H]1C(=O)C(C)O (some centres not stated)         pIC50     4.80

// query pIC50 value for entry Cc1cc(O)c(C(=O)c2c(C(=O)O)cc(O)c(O)c2O)c(O)c1 4.15

----------
System: A549
Assay: Cytotoxicity against human A549 cells after 48 hrs by MTT assay
Type: functional, cell-based
Conditions: Homo sapiens, A549, 48 h; read-out: IC50
readout_name: IC50

# annotated cases, reported IC50 shown
>>> print(df.to_string())
                            compound_smiles  readout_name         reading
0  C[C@@H](O)[C@@]1(O)C(=O)N2C(C)(C)[C@@H]3Cc4cccc5c4[C@@]4(O[C@@]1(O)[C@@]2(O)[C@H]34)C(=O)N5C          IC50   1.2 to 4.2 µM
1  COc1c(OC)c2c(c(OC)c1-c1c[nH]c3ccccc13)O[C@@H]1Nc3ccccc3[C@]21OC          IC50       3.5 µg/mL
2  CC(C)=CCc1cc2c3c(c1)N(C)C(=O)[C@]31O[C@]3(O)[C@@H](O)C(=O)N4C(C)(C)[C@H](C2)[C@H]1[C@@]43O          IC50   1.2 to 4.2 µM
3        COc1ccc2c(c1C/C=C(\C)CO)C=C(CO)OC2          IC50   2.8 to 8.8 µM
4  COC(=O)C1=C[C@@H](C)C[C@H]2CC[C@@H](O)[C@@]12O          IC50  3.6 to 16.2 µM
5        CC(=O)Cc1cc2c(CCCO)cc(O)cc2c(=O)o1          IC50   2.8 to 8.8 µM
6         C/C(=C\Cc1c(O)ccc2c1C=C(CO)OC2)CO          IC50   2.8 to 8.8 µM
7  CN1C(=O)[C@]23O[C@]4(O)[C@@H](O)C(=O)N5C(C)(C)[C@H](Cc6cccc1c62)[C@H]3[C@@]54O          IC50   1.2 to 4.2 µM

// query IC50 value for entry COC(=O)CCCN1C(=O)[C@@]23O[C@@]4(O)[C@@]5(O)[C@@H]2[C@@H](Cc2cccc1c23)C(C)(C)N5C(=O)[C@]4(O)[C@@H](C)O < 10 µM

// query IC50 value for entry COc1ccc(CCCO)c2cc(CC(C)=O)oc(=O)c12 2.8 to 8.8 µM
